test system: Candida albicans; experiment: Antifungal activity against Candida albicans ATCC 10231 at 10 ug/ml by agar cup-plate method; assay type: functional; settings: read-out: IZ
readout: zone of inhibition at 10 µg/mL (mm)
The response must be a number in mm with no trailing unit.

1. O=c1c2cc(I)ccc2nc(Cc2ccccc2Nc2ccccc2)n1NC1=NNC(c2ccccc2Cl)C1 (centres undefined) : 17

input: Recorded zone of inhibition at 10 µg/mL for COc1ccccc1C1CC(Nn2c(Cc3ccccc3Nc3ccccc3)nc3ccc(I)cc3c2=O)=NN1 (centres undefined) , please?
output: 0

input: Recorded zone of inhibition at 10 µg/mL for O=c1c2cc(I)ccc2nc(Cc2ccccc2Nc2ccccc2)n1NC1=NNC(c2cccc([N+](=O)[O-])c2)C1 (centres undefined) , please?
output: 13

input: Recorded zone of inhibition at 10 µg/mL for CN(C)c1ccc(C2CC(Nn3c(Cc4ccccc4Nc4ccccc4)nc4ccc(I)cc4c3=O)=NN2)cc1 (centres undefined) , please?
output: 15

input: Recorded zone of inhibition at 10 µg/mL for O=c1c2cc(I)ccc2nc(Cc2ccccc2Nc2ccccc2)n1NC1=NNC(c2ccc(Cl)cc2)C1 (centres undefined) , please?
output: 16
